Test system: A375 cells
Experiment: Tumor cell line proliferation assay (CellTiter Glo), A375
Type: cell-based
Details: Homo sapiens, A-375, 96 h, read-out: A375 (V599E) Cell Proliferation IC50
pIC50: −log10 of the molar value.
Each record here notes measured pIC50.

[
  {
    "compound": "Cc1cc(-c2n[nH]c3cc4c(cc23)CN(CC2CCOCC2)C(=O)N4)ccn1 [Example 211]",
    "pIC50": "6.00 to 6.60"
  }
]

Now let's try a different one.
Name the recorded pIC50 for Cc1ccc(-c2n[nH]c3cc4c(cc23)CN([C@@H]2CCCN(Cc3ccc(F)cc3F)C2)C(=O)N4)cn1 [Example 284] . ≥ 6.60
